Study System: T1, human δ opioid receptor (human, UniProt P41143 1-372)
T1 construct: whole, on cells; membrane preparations of the transfected cells were used; also called hDOR; DOR
T1 sequence (P41143 whole entry, stated change not applied): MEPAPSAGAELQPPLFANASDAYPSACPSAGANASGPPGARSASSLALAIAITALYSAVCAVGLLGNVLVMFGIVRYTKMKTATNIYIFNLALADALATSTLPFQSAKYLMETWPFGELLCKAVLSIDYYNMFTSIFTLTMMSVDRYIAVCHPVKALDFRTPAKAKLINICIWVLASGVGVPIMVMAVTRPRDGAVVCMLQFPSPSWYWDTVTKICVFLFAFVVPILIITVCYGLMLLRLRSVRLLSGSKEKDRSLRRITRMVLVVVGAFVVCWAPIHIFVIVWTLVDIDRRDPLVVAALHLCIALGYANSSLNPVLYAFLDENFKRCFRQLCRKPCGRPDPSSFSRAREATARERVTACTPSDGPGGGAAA
Measurement Notes: competition vs [3H]DPDPE, hDOR cell membranes
Bridge positions count the residues as written; N and C are the ends. Square brackets hold non-standard residues; d marks the D form. Ends that are not written are not given here. * marks the point of attachment. NH(3,5-(CF3)2-benzyl) = FC(F)(F)c1cc(CN*)cc(C(F)(F)F)c1; Nle = CCCC[C@H](N)C(=O)O
Exercise: state measured Ki for each of the binders provided.
Write the value in nM as a bare number.

Lookup result for Y[dC]GF[dC]PLW-{NH(3,5-(CF3)2-benzyl)} (disulfide 2-5, cyclic; also called TY037; [D-Cys2, D-Cys5]TY027) [Tyr[DCysGlyPheDCys]ProLeuTrpNHBn(CF3)2] ; measured Ki: 7.8

Lookup result for Y[dC]GFCPLW-{NH(3,5-(CF3)2-benzyl)} (disulfide 2-5, cyclic; also called TY039; [D-Cys2, Cys5]TY027) [Tyr[DCysGlyPheCys]ProLeuTrpNHBn(CF3)2] ; measured Ki: 11

Lookup result for Y[dC]GF[Nle]PCW-{NH(3,5-(CF3)2-benzyl)} (disulfide 2-7, cyclic; also called TY035; [D-Cys2, Cys7]TY027) [Tyr[DCysGlyPheNleProCys]TrpNHBn(CF3)2] ; measured Ki: 1.3

Lookup result for Y[dC]GF[Nle]P[dC]W-{NH(3,5-(CF3)2-benzyl)} (disulfide 2-7, cyclic; also called TY038; [D-Cys2, D-Cys7]TY027) [Tyr[DCysGlyPheNleProDCys]TrpNHBn(CF3)2] ; measured Ki: 56
